Measured protein stability index by item
B1: ZNF511 (parent)
chain: FDALDDYEHHYHTLHGNVCSFCKR

Variants of: B1
TEST_NAME: protein stability index of a GFP-peptide fusion (GPS, HEK-293T) (PSI 1-6); higher = more stable;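 further: lentivirally expressed fusions sorted by FACS into six bins by GFP to DsRed ratio, PSI derived from sequencing read proportions per bin multiplied by bin number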
CONDITIONS_USED: c terminus: a fixed tail appended
Just the number, please, no unit after it.

Worked cases, answers included:
### Prompt Name the reported protein stability index value associated with the variant `H15N`
### Response 3.96

### Prompt And for `N17E` ?
### Response 3.96

### Prompt Check `L14A` too.
### Response 3.98

Next:
### Prompt Query (variant): `L4R` ; field requested: protein stability index
### Response 3.93

### Prompt Thanks! And `V18G` ?
### Response 4.05

### Prompt Also `L14S` , if possible.
### Response 4.08

### Prompt Query `H15D` next
### Response 3.97

### Prompt `L14T` , same question.
### Response 4.04

### Prompt # iterate: `D6N`
### Response 3.91

### Prompt Same for `F21H`
### Response 4
